Values compiled from ChEMBL document CHEMBL1150926.

Reported LC50 at 48 h values follow for various compounds
Assay: Toxicity against Artemia salina assessed as mortality after 48 hrs
Type: organism-based
Details: in vivo
The answer is to be given in µg/mL; state only the numeric part.

>  <compound.structure>
CC(=O)[C@@]1(C)CCC[C@]2(C)[C@H]3CC[C@]4(C)Oc5ccc(O)cc5C[C@H]4[C@]3(C)CC[C@H]21

>  <value.unit>
µg/mL

>  <LC50 at 48 h>
143

$$$$
>  <compound.structure>
C[C@]12CCC[C@](C)(C(=O)O)[C@@H]1CC[C@]1(C)[C@@H]2CC[C@]2(C)Oc3ccc(O)cc3C[C@@H]12

>  <value.unit>
µg/mL

>  <LC50 at 48 h>
59.2

$$$$
>  <compound.structure>
C[C@]12CC[C@H]3[C@@](C)(CCC[C@@]3(C)C(=O)O)[C@@H]1CC[C@@]1(C)Oc3c(O)ccc(Oc4ccc5c(c4)C[C@H]4[C@]6(C)CC[C@@H]7[C@](C)(CCC[C@]7(C)C(=O)O)[C@H]6CC[C@]4(C)O5)c3C[C@H]21

>  <value.unit>
µg/mL

>  <LC50 at 48 h>
10.5

$$$$

As a next step, examine the compound that follows.
*Q* Which LC50 at 48 h reading was recorded for the compound "C[C@@]12CC[C@@H]3[C@]4(CCC[C@@]3(C)C(=O)OC4)[C@H]1CC[C@]1(C)Oc3ccc(O)cc3C[C@@H]21" ?
*A* 534
